Test system: E coli

| compound | testedOn | MIC |
| --- | --- | --- |
| NCC(=O)Nc1cc(C(=O)NCCNC(=O)c2cc(NC(=O)CN)cn2CC2CC2)n(CC2CC2)c1 | E coli | 45.5 µM |
| N=C(N)NCC(=O)Nc1cc(C(=O)NCCNC(=O)c2cc(NC(=O)CNC(=N)N)cn2CC2CC2)n(CC2CC2)c1 | E coli | > 45.5 µM |
| CC(C)CCn1cc(NC(=O)CNC(=N)N)cc1C(=O)Nc1ccc2ccc(NC(=O)c3cc(NC(=O)CNC(=N)N)cn3CCC(C)C)cc2c1 [Compound 189b] | E coli | 45.5 µM |
| O=C(NC1CCC(NC(=O)c2cc(NC(=O)C3CCCN3)cn2CC2CC2)CC1)c1cc(NC(=O)C2CCCN2)cn1CC1CC1 (stereo not drawn) | E coli | > 45.5 µM |
| CC(C)CCn1cc(NC(=O)CNC(=N)N)cc1C(=O)Nc1ccc(NC(=O)c2cc(NC(=O)CNC(=N)N)cn2CCC(C)C)cc1 [Compound 189a] | E coli | 11.4 µM |
| CC/N=C(/NCCN(C)C)Nc1cc(C(=O)Nc2ccc(NC(=O)c3cc(N/C(=N/CC)NCCN(C)C)cn3CCC(C)C)cc2)n(CCC(C)C)c1 | E coli | 22.7 µM |

* * *

Test system: VRE-UCD3 (vancomycin resistant enterococci)
test: MIC assay, VRE strain UCD-3
Format: cell-based
cond: No vancomycin - 16 h
experimentalReadout: MIC Assay VRE Strains: UCD-3 van0

| molecule | result |
| --- | --- |
| Cn1cc(NC(=O)c2cc(NC(=O)CN)cn2C)cc1C(=O)NCCCN(CCCNC(=O)c1cc(NC(=O)c2cc(NC(=O)CN)cn2C)cn1C)C(=O)OCc1ccccc1 [Compound 42] | 45.5 µM |
| Cn1cc(NC(=O)CN)cc1C(=O)Nc1cc(C(=O)NC2CCC(CC3CCC(NC(=O)c4cc(NC(=O)c5cc(NC(=O)CN)cn5C)cn4C)CC3)CC2)n(C)c1 (stereo not shown) [Compound 21] | >45.5 µM |
| Cn1cc(NC(=O)c2cc(NC(=O)CN)cn2C)cc1C(=O)NCCCN(CCCNC(=O)c1cc(NC(=O)c2cc(NC(=O)CN)cn2C)cn1C)CCCNC(=O)c1cc(NC(=O)c2cc(NC(=O)CN)cn2C)cn1C [Compound 74] | 5.7 µM |
| Cn1cc(NC(=O)c2cc(NC(=O)CN)cn2C)cc1C(=O)NCCNC(=O)c1cc(NC(=O)c2cc(NC(=O)CN)cn2C)cn1C [Compound 10] | >45.5 µM |

* * *

Tested on: Aspergillus fumigatus

| compound | relation | MIC, µM |
| --- | --- | --- |
| O=C(NC1CCC(NC(=O)c2cc(NC(=O)C3CCCN3)cn2CC2CC2)CC1)c1cc(NC(=O)C2CCCN2)cn1CC1CC1 (stereo not drawn) [Compound 171] | > | 50 |
| N=C(N)NCC(=O)Nc1cc(C(=O)NCCNC(=O)c2cc(NC(=O)CNC(=N)N)cn2CC2CC2)n(CC2CC2)c1 [Compound 174] | > | 50 |
| CC(C)CCn1cc(NC(=O)CNC(=N)N)cc1C(=O)Nc1ccc(NC(=O)c2cc(NC(=O)CNC(=N)N)cn2CCC(C)C)cc1 [Compound 189a] | = | 12.5 |
| NCC(=O)Nc1cc(C(=O)NCCNC(=O)c2cc(NC(=O)CN)cn2CC2CC2)n(CC2CC2)c1 [Compound 169] | > | 50 |
| CC(C)CCn1cc(NC(=O)CNC(=N)N)cc1C(=O)Nc1ccc2ccc(NC(=O)c3cc(NC(=O)CNC(=N)N)cn3CCC(C)C)cc2c1 [Compound 189b] | = | 3.1 |
| CC/N=C(/NCCN(C)C)Nc1cc(C(=O)Nc2ccc(NC(=O)c3cc(N/C(=N/CC)NCCN(C)C)cn3CCC(C)C)cc2)n(CCC(C)C)c1 [Compound 191] | = | 12.5 |
